Recorded values, source paper PMC9863266.

TEST METHOD NOTES: Acute oral toxicity in mice (Up and Down test)
Format: in vivo
STATED CONDITIONS: CD1 and Balb/c, mouse, in vivo; oral, microemulsion

{"CPD SMILES": "O=C(/C=C/C=C/c1ccco1)/C=C/C=C/c1ccco1", "LD50 at 14 days": "2000 mg/kg"}
